# maps each entry to its IC50
Tested on: A2780 cells
Assay Overview: Cell proliferation assay (A2780)
Assay type: cell-based
Details: Homo sapiens, 168 h, 7 days

In plain terms, `CCc1cccc(-c2cnc(C(=O)N3CCC(CN4CCN(CC(=O)N5CCN(C(=O)c6cc(Cc7n[nH]c(=O)c8ccccc78)ccc6F)CC5)CC4)CC3)c(NC(=O)CNCc3ccc(F)cc3F)c2)c1` has a documented IC50 of 10 to 100 nM

For record `CC(C)(C)C(=O)N1CCC[C@@](F)(c2cccc(C(=O)N[C@@H](C(=O)N3CCC(OC4CCN(CC(=O)N5CCN(C(=O)c6cc(Cc7n[nH]c(=O)c8ccccc78)ccc6F)CC5)CC4)CC3)C3CCCCC3)c2F)C1` the listed IC50 is 10 to 100 nM

What the record says about O=C(N[C@@H](C(=O)N1CCN(CC2CCN(CC(=O)N3CCN(C(=O)c4cc(Cc5n[nH]c(=O)c6ccccc56)ccc4F)CC3)CC2)CC1)C1CCCCC1)c1cc(C2CCCN(C(=O)CNCc3ccc(F)cc3F)C2)ccc1F (some centres unmarked) : IC50 is 100 to 1000 nM

The reported value for `O=C(CN1CCN(CC2CCN(C(=O)c3c(F)cc(-c4ccccc4)cc3F)CC2)CC1)N1CCN(C(=O)c2cc(Cc3n[nH]c(=O)c4ccccc34)ccc2F)CC1` in terms of IC50 is < 10 nM

Reported IC50 ( `CCc1cccc(-c2cnc(C(=O)NCCOCCNCC(=O)N3CCN(C(=O)c4cc(Cc5n[nH]c(=O)c6ccccc56)ccc4F)CC3)c(NC(=O)CNCc3cccc(C)c3)c2)c1` ) = 10 to 100 nM

These data points were gathered from patent US20250127907A1.
